Recorded EC50, one value per entry.
target: T1, human EGFRvIII-hFc protein (human, UniProt P00533 25-645); experiment: ELISA, EGFRvIII-hFc coated
T1 construct: extracellular domain; also called immunogen A; hFc-tagged EGFRvIII protein; not shown: human IgG Fc fragment (hFc) of the pCpC vector

BINDER: Humanized antibody h75G7C6-16 (antibody, human IgG1, V domains shown, also called VH-g2/VL-g3) VH: QVQLVQSGAEVKKPGASVKVSCKASGYTFTDYNMDWVKQAPGQGLEWIGDINPNNADTIYNQKFKGRVTLTVDKSTSTVYMELSSLRSEDTAVYYCARGDYDGYYPVYYAMDYWGQGTTVTVSS VL: ENVLTQSPATLSLSPGERATLSCRASSSVSSSYLHWYQQKPGQSPRLLIFSTSNLAAGVPARFSGSGSGTDYTLTISSLEPEDFAVYYCQQYSGYPLTFGGGTKVEIK
EC50 [pM]: 270
//
BINDER: Humanized antibody h63A10A7-18 (antibody, human IgG1, V domains shown, also called VH-g5/VL-g4) VH: QVQLVQSGAEVKKPGASVKVSCKASGYTFISFTMHWVKQRPGQGLEWIGYINPNSGYTKYNQKFKDKATLTADQSTSTAYMELSSLRSEDTAVYYCTRGGGRGFAYWGQGTLVTVSS VL: DILMTQSPSSLSASVGDRVTITCHASQDINSNIGWLQQKPGKSFKALIYHGTNLEDGVPSRFSGSGSGADYTLTISSLQPEDFATYYCVQYAQFPFTFGQGTKLEIK
EC50 [pM]: 10
//
BINDER: Humanized antibody h63A10A7-22 (antibody, human IgG1, V domains shown, also called VH-g4/VL-g3) VH: QVQLVQSGAEVKKPGASVKVSCKASGYTFISFTMHWVKQRPGQGLEWIGYINPNSGYTKYNQKFKDKATLTRDTSTSTVYMELSSLRSEDTAVYYCTRGGGRGFAYWGQGTLVTVSS VL: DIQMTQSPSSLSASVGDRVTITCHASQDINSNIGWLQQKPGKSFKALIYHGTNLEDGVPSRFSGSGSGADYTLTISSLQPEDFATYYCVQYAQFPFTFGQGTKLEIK
EC50 [pM]: 150

Cited source: patent US20210032351A1
